Values were extracted from patent US20250215104A1.

Target: T1, cynomolgus soluble urokinase plasminogen activator receptor (suPAR) (cynomolgus, UniProt Q9GK78 23-303, limits assumed)
T1 construct: Column head says only 'cynomologus'; also called cynomolgus suPAR; cynomolgus uPAR
T1 sequence (Q9GK78 23-303 limits assumed): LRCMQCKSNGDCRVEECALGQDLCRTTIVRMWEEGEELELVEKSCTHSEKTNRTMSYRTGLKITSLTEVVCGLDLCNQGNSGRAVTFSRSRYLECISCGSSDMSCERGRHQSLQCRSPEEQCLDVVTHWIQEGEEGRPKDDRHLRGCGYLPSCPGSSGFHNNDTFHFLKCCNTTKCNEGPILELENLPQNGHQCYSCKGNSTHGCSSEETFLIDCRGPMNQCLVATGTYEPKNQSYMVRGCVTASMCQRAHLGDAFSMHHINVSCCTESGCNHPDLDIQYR
Assay: BLI (Octet) off-rate screen of scFv clones
Returns one of 1 or -1; 1 when koff is >= 0.0006 s⁻¹.

Test whether the binder suPAR_DB02_F09 (scFv, V domains shown, scFv clone from phage display) VH: QVQLVQSGAEVKKPGASVKVSCKASGYTFTGYYMHWVRQAPGQGLEWMGWIDPEGGSTIYDQKFQGRVTMTRDTSTSTVYMELSSLRSEDTAVYYCAGGYDVDWFVYWGQGTLVTVSS VL: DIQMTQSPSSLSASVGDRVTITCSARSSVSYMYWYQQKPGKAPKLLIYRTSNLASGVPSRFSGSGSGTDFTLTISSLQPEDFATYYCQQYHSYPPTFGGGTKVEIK records koff of 0.0006 s⁻¹ or higher.
1

Is koff at least 0.0006 s⁻¹? Consider suPAR_DB02_F05 (scFv, V domains shown, scFv clone from phage display) VH: QVQLVQSGAEVKKPGASVKVSCKASGYTFTGNYMQWVRQAPGQGLEWMGWIDHENGNTIYDQKFQGRVTMTRDTSTSTVYMELSSLRSEDTAVYYCARGYDVDWFVYWGQGTLVTVSS VL: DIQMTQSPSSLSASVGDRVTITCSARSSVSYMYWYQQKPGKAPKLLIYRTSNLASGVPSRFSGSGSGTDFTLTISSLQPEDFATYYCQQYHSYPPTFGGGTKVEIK
-1

Exam item: decide whether the reported koff for suPAR_DB02_F12 (scFv, V domains shown, scFv clone from phage display) VH: QVQLVQSGAEVKKPGASVKVSCKASGDMFTGYYLHWVRQAPGQGLEWMGWIDHENGNTIYDQKFQGRVTMTRDTSTSTVYMELSSLRSEDTAVYYCARGYDVDWFVYWGQGTLVTVSS VL: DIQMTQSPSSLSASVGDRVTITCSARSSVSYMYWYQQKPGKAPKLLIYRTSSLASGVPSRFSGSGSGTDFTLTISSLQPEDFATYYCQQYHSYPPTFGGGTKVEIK is at least 0.0006 s⁻¹.
-1
